tgt: G2019S-LRRK2 (recombinant GST-LRRK2 delta970) (Homo sapiens, UniProt Q5S007, G2019S)
Construct: Recombinant GST-LRRK2 (delta970); GST (N); host or cells: baculovirus-infected Sf9 insect cells
Sequence (Q5S007 970-2527 G2019S limits assumed): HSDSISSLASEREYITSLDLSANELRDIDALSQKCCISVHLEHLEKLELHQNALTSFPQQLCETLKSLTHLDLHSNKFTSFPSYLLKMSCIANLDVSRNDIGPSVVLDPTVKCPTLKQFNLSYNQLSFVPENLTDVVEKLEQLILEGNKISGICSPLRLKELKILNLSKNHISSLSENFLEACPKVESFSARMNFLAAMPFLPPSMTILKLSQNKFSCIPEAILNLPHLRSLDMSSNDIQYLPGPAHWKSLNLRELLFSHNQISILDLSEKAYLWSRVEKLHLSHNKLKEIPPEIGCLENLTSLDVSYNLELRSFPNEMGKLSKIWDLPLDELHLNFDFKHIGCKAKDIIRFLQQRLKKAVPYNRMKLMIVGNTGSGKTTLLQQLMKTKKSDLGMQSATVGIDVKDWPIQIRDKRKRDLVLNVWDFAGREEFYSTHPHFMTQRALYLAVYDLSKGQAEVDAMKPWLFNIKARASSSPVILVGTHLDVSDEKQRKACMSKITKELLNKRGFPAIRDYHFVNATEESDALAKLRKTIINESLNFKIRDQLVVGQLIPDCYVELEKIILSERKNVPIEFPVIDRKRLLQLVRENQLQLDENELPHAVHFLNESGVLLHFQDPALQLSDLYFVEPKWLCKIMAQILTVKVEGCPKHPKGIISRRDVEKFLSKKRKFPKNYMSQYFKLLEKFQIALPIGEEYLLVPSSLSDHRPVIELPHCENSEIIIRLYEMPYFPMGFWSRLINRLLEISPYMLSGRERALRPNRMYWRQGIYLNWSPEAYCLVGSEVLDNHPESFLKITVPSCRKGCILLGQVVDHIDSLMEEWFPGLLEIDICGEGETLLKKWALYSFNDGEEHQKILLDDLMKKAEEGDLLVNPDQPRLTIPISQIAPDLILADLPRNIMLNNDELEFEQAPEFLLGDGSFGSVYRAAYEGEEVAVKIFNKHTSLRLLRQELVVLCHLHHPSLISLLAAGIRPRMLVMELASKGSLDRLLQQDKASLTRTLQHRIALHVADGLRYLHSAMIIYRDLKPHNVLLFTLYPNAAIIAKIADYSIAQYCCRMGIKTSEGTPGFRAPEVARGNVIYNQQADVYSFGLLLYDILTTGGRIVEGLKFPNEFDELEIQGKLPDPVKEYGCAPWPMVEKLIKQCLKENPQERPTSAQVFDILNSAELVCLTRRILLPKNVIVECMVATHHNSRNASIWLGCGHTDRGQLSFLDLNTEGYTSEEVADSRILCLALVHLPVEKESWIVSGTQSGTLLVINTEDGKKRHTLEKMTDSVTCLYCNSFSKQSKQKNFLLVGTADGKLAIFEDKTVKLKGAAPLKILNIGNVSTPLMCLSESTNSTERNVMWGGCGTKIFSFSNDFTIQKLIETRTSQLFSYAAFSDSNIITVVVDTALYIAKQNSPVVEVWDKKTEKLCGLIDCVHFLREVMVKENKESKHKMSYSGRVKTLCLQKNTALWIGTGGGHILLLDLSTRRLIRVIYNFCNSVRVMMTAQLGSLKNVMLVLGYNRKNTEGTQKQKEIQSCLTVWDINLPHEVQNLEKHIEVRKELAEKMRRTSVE
procedureSummary: LRRK2 kinase assay, G2019S mutant (32P radiometric, peptide substrate)
Assay type: biochemical
particulars: G2019S-LRRK2 30 nM, ATP ~52 μM (Km), 30 min at 30° C.
quantityName: IC50 (µM)
The figure you give is taken to be in µM; do not add the unit.

| compound | quantityName | dataValue |
| --- | --- | --- |
| COCC(C)n1cc(Nc2nc(N[C@@H](C)C3CC3)c3cc[nH]c3n2)cn1 (some centres unmarked) | IC50 | 0.015 |
| COCCn1cc(Nc2nc(N[C@@H](C)C3CC3)c3cc[nH]c3n2)cn1 | IC50 | 0.011 |

Quote IC50 reported for CC(O)Cn1cc(Nc2nc(N[C@@H](C)C3CC3)c3cc[nH]c3n2)nn1 (some centres unmarked) please.
0.027

For the compound "C[C@H](Nc1nc(Nc2cn([C@H]3CCOC3)nn2)nc2[nH]ccc12)C1CC1" , give its reported IC50.
0.102

Retrieve IC50 measured for "C[C@H](Nc1nc(Nc2cnn(C)c2)nc2[nH]ccc12)C1CC1" and print it.
0.03

Please give measured IC50 of the following entry: "CC(C)n1cc(Nc2nc(N[C@@H](C)c3ccccc3)c3cc[nH]c3n2)cn1"
0.056

Given the compound CNC(=O)C(C)n1cc(Nc2nc(N[C@@H](C)C3CC3)c3cc[nH]c3n2)c(Cl)n1 (some centres unmarked) , write its reported IC50.
0.017

Note IC50 for the compound shown: "Cc1cc(Nc2nc(N[C@@H](C)C3CC3)c3cc[nH]c3n2)n[nH]1"
0.044
